Ref: ChEMBL document CHEMBL4689842

Tested on: HEK-293T
Assay: Multiplex assay against HEK293T;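 for Population Tubulin-Different-Phenotype (%): share of the cells with healthy nuclei that show this phenotype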
Type: toxicity, cell-based
Details: human, 48 h, 1 µM, compound concentration 1 uM, replicate 1
We use 50% as the dividing line for Population Tubulin-Different-Phenotype (%): on or above the line is Condition met, below is Condition not met.

Compound	Test System	Qualitative Label
O=C1N/C(=N/c2ccccc2F)S/C1=C\c1ccc(C(=O)O)cc1	HEK-293T	Condition not met
CCn1c(=O)c(-c2ccc(-c3cncs3)cc2Cl)cc2cnc(Nc3ccc(N4CCN(C)CC4)cc3)nc21	HEK-293T	Condition not met
CNc1cc(Oc2cc(C(=O)Nc3cc(N4CCN(C)CC4)cc(C(F)(F)F)c3)ccc2C)ncn1	HEK-293T	Condition met
COc1cc(N2CCN(C)CC2)ccc1Nc1ncc2c(n1)N(C)c1ccccc1C(=O)N2C	HEK-293T	Condition not met
O=C(Nc1ccc(-n2nc(-c3cccnc3)cc2C(F)(F)F)cn1)c1ccc(-c2ccccc2)c(F)c1	HEK-293T	Condition not met

Form field: Population Tubulin-Different-Phenotype (%) at least 50%? Entry: O=C(Nc1ccc(Cl)cc1)Nc1cccc(-c2cccc(N3CCCC3)n2)c1 Condition not met

Test whether the compound Cl.Oc1ccc2c3c1O[C@H]1c4[nH]c5c(c4C[C@@]4(O)[C@@H](C2)N(CC2CC2)CC[C@]314)C[C@@]1(O)[C@H]2Cc3ccc(O)c4c3[C@@]1(CCN2CC1CC1)[C@H]5O4 records Population Tubulin-Different-Phenotype (%) of 50% or higher. Condition not met

* * *

Test system: U2OS
Assay: Multiplex assay against U2OS
Type: toxicity, cell-based
Settings: human, 24 h, 10 µM, compound concentration 10 uM, replicate 1
Cut-off 50% on Population Membrane Permeable-Phenotype (%), inclusive. At or above means t; below means f.

Illustrative cases are given below, each with its answer.
Compound	Qualitative Label
CCCn1c(=O)c2[nH]c(-c3cnn(Cc4cccc(C(F)(F)F)c4)c3)nc2n(CC)c1=O [GS 6201]	f
CN1CCN(C(=O)C(C)(C)c2ccc(C(=O)Nc3cn4cc(-c5cc(C(C)(C)C)cc(C(C)(C)C)c5)ccc4n3)cc2)CC1 [T3-CLK-N]	t
Cn1nc(C(F)(F)F)cc1-c1cnc(N2CCc3cc(S(=O)(=O)Nc4c(F)cc(Cl)cc4F)cc(N4CCCC4=O)c32)nc1 [TP-020]	f

For this compound, is measured Population Membrane Permeable-Phenotype (%) 50% or higher? Cl.O=C(c1ccc(Nc2nccc(-c3cc4ccccc4s3)n2)cc1)N1CCC(N2CCCC2)CC1 t

Could you tell me if the measured Population Membrane Permeable-Phenotype (%) of COc1cc(N2CCN(C)CC2)ccc1Nc1ncc2c(n1)N(C)c1ccccc1C(=O)N2C reaches 50% or more? f

Quick check: does CNC(=O)c1ccc(Nc2nc(OC3CCCC3)c3c(-c4ccc5nc(C)oc5c4)c[nH]c3n2)c(OC)c1 have Population Membrane Permeable-Phenotype (%) greater than or equal to 50%? f

Would you say C=CCn1c(=O)c2cnc(Nc3ccc(N4CCN(C)CC4)cc3)nc2n1-c1cccc(C(C)(C)O)n1 [ADAVOSERTIB] shows Population Membrane Permeable-Phenotype (%) at minimum 50%? t

Does Population Membrane Permeable-Phenotype (%) meet or surpass 50% for COCC(=O)NC/C=C/c1ccc2ncnc(Nc3ccc(Oc4ccc(C)nc4)c(C)c3)c2c1 [CP-724714] ? f

Threshold query (Population Membrane Permeable-Phenotype (%) >= 50%) on Cc1cn(-c2cc(NC(=O)c3ccc(C)c(Nc4nccc(-c5cccnc5)n4)c3)cc(C(F)(F)F)c2)cn1 [NILOTINIB] f

* * *

Tested on: U2OS
Experiment: Multiplex assay against U2OS
Format: toxicity, cell-based
Details: human, 12 h, 10 µM, compound concentration 10 uM, replicate 1
Population Mitochondria Different-Phenotype (%) overview
Form entry: value (%) — number only.

See these solved cases before continuing.
Compound	Test System	Unit Of Measure	Endpoint Value
O=C(Nc1cccnn1)N1CCC(=Cc2cccc(Oc3ccc(C(F)(F)F)cn3)c2)CC1	U2OS	%	22
CCc1cccc(CC)c1NC(=O)c1nn(C)c2c1CCc1cnc(Nc3ccc(N4CCN(C)CC4)cc3OC)nc1-2	U2OS	%	54
CCN1CCN(c2ccc(Nc3cc(N(C)C(=O)Nc4c(Cl)c(OC)cc(OC)c4Cl)ncn3)cc2)CC1	U2OS	%	17
C=C1/C(=C\C=C2/CCC[C@]3(C)[C@@H]([C@H](C)/C=C/[C@H](C)C(C)C)CC[C@@H]23)C[C@@H](O)C[C@@H]1O	U2OS	%	17
COc1ccc(-c2ccc3c(N4CCOCC4)nc(N4C[C@@H](C)O[C@@H](C)C4)nc3n2)cc1CO	U2OS	%	6
Cc1cn(-c2cc(NC(=O)c3ccc(C)c(Nc4nccc(-c5cccnc5)n4)c3)cc(C(F)(F)F)c2)cn1	U2OS	%	89
CCn1c(=O)c(-c2ccc(-c3cncs3)cc2Cl)cc2cnc(Nc3ccc(N4CCN(C)CC4)cc3)nc21	U2OS	%	53
Cc1cc(C)c(S(=O)(=O)N(Cc2ccc(-c3cccc(S(C)(=O)=O)c3)cc2)Cc2ccc(C(F)(F)F)o2)c(C)c1	U2OS	%	27
O=C(Cc1ccc(-c2ccc(OCCN3CCOCC3)cc2)cn1)NCc1ccccc1	U2OS	%	16
Cc1ccc(C(=O)Nc2cccc(C(F)(F)F)c2)cc1Nc1nc(-c2cccnc2)nc2c1cnn2C	U2OS	%	87

Consider O=C(Nc1ccc(-c2ccnc(Nc3ccc(N4CCOCC4)cc3)n2)cc1)[C@@H]1CCCN1 . Its measured Population Mitochondria Different-Phenotype (%) is 74

# compound O=C(Nc1ccc(Cl)cc1)Nc1cccc(-c2cccc(N3CCCC3)n2)c1 ; its Population Mitochondria Different-Phenotype (%) = 12

* * *

Tested on: HEK-293T
Experiment: Multiplex assay against HEK293T
Type: toxicity, cell-based
Details: human, 12 h, 1 µM, compound concentration 1 uM, replicate 1
Metric Name: Population Membrane Permeable-Phenotype (%)
The reply should contain only the number, in %.

Compound	Endpoint Value
Cc1cc(C)c(S(=O)(=O)N(Cc2ccc(-c3cccc(S(C)(=O)=O)c3)cc2)Cc2ccc(C(F)(F)F)o2)c(C)c1	3
CN1CCC(=C2c3ccccc3CC(=O)c3sccc32)CC1.O=C(O)/C=C/C(=O)O [KETOTIFEN FUMARATE]	5
O=C(Nc1ccc(-c2ccnc(Nc3ccc(N4CCOCC4)cc3)n2)cc1)[C@@H]1CCCN1	2
CN1CCN(C(=O)C(C)(C)c2ccc(C(=O)Nc3cn4cc(-c5cc(C(C)(C)C)cc(C(C)(C)C)c5)ccc4n3)cc2)CC1	5
COC(=N)c1nc2ccc3ncnc(Nc4ccc(OC)cc4F)c3c2s1	3
S=C(NCCCc1c[nH]cn1)NCCCN(Cc1ccc(Cl)c(Cl)c1)c1ccc(Br)cn1	4

Population Membrane Permeable-Phenotype (%) in this record for CCCS(=O)(=O)Nc1ccc(F)c(C(=O)c2c[nH]c3ncc(Cl)cc23)c1F : 6

Value of measured Population Membrane Permeable-Phenotype (%) for the entry O=C(Nc1ccc(-n2nc(-c3cccnc3)cc2C(F)(F)F)cn1)c1ccc(-c2ccccc2)c(F)c1 : 0

Given item NC(=O)c1cccc(-c2cc(Nc3ccc(OC(F)(F)F)cc3)ncn2)c1 , the value recorded as its Population Membrane Permeable-Phenotype (%) is 4

For C=CCn1c(=O)c2cnc(Nc3ccc(N4CCN(C)CC4)cc3)nc2n1-c1cccc(C(C)(C)O)n1 the compound record lists Population Membrane Permeable-Phenotype (%) as 4

Population Membrane Permeable-Phenotype (%) reading for CN[C@@H]1C[C@H]2O[C@@](C)([C@@H]1OC)n1c3ccccc3c3c4c(c5c6ccccc6n2c5c31)C(=O)NC4 : 16

* * *

Tested on: Fibroblast
Test: Multiplex assay against human fibroblast
Assay type: toxicity, cell-based
Conditions: 24 h, 1 µM, compound concentration 1 uM, replicate 2
Metric Name: Population Tubulin-Different-Phenotype (%)
Response body: numeric value in %, unit text excluded.

Examples with answers:
Compound	Endpoint Value
CCOc1cc(C(=O)N2CCC(N3CCN(C)CC3)CC2)ccc1Nc1ncc2c(n1)N(C1CCCC1)c1ccccc1C(=O)N2C	27
Cl.O=c1c2cccn2c2ccccc2n1CCCN1CCC(c2ccc(Cl)cc2)CC1	19
C=C1/C(=C\C=C2/CCC[C@]3(C)[C@@H]([C@H](C)/C=C/[C@H](C)C(C)C)CC[C@@H]23)C[C@@H](O)C[C@@H]1O	14
Cc1cc(C)c(S(=O)(=O)N(Cc2ccc(-c3cccc(S(C)(=O)=O)c3)cc2)Cc2ccc(C(F)(F)F)o2)c(C)c1	32
CCn1c(=O)c(-c2ccc(-c3cncs3)cc2Cl)cc2cnc(Nc3ccc(N4CCN(C)CC4)cc3)nc21	20
O=C(Nc1ccc(-n2nc(-c3cccnc3)cc2C(F)(F)F)cn1)c1ccc(-c2ccccc2)c(F)c1	37
CNc1cc(Oc2cc(C(=O)Nc3cc(N4CCN(C)CC4)cc(C(F)(F)F)c3)ccc2C)ncn1	51
S=C(NCCCc1c[nH]cn1)NCCCN(Cc1ccc(Cl)c(Cl)c1)c1ccc(Br)cn1	20
COC(=N)c1nc2ccc3ncnc(Nc4ccc(OC)cc4F)c3c2s1	14
CN1CCN(C(=O)C(C)(C)c2ccc(C(=O)Nc3cn4cc(-c5cc(C(C)(C)C)cc(C(C)(C)C)c5)ccc4n3)cc2)CC1	11

Lab book: Population Tubulin-Different-Phenotype (%) of CNC(=O)c1ccc(Nc2nc(OC3CCCC3)c3c(-c4ccc5nc(C)oc5c4)c[nH]c3n2)c(OC)c1 noted as 90

COc1cc(N2CCN(C)CC2)ccc1Nc1ncc2c(n1)N(C)c1ccccc1C(=O)N2C yielded Population Tubulin-Different-Phenotype (%) of 6

CCCn1c(=O)c2[nH]c(-c3cnn(Cc4cccc(C(F)(F)F)c4)c3)nc2n(CC)c1=O yielded Population Tubulin-Different-Phenotype (%) of 30

Kindly note the recorded Population Tubulin-Different-Phenotype (%) for CCOC(=O)c1c(C)[nH]c2ccc3c(c12)CN1CCc2cc(OC)ccc2C1O3 (stereo unspecified) , which is 35
